Target: human LPA1 (Homo sapiens)
Construct: expressed in transfected cells; host or cells: Chinese hamster ovary (CHO) cells
Assay: LPA1 functional antagonist assay (LPA-induced calcium flux in CHO cells overexpressing human LPA1)
Assay type: cell-based
Settings: inhibition of calcium flux induced by 10 nM LPA, CHO cells overexpressing human LPA1; read-out: hLPA1 IC50
Protocol: The effectiveness of compounds of the present invention as LPA1 inhibitors can be determined in an LPA1 functional antagonist assay as follows: Chinese hamster ovary cells overexpressing human LPA1 were plated overnight (15,000 cells/well) in poly-D-lysine coated 384-well microplates (Greiner bio-one, Cat #781946) in DMEM/F12 medium (Gibco, Cat #11039). […] IC50 values were determined by fitting data to a 4-parameter logistic equation (GraphPad Prism, San Diego Calif.).
attributeMeasured: IC50 (nM)

Below are worked cases with known answers.
Cc1nc(-c2nnn(C)c2Cc2nnc(Cc3ccc(F)cc3)o2)ccc1O[C@H]1CCC[C@H](C(=O)O)C1; 260
CCCc1nc(Cc2c(-c3ccc(O[C@H]4CCC[C@H](C(=O)O)C4)c(C)n3)nnn2C)no1; 59
Cc1nc(-c2nnn(C)c2Cn2nnc(OCC(C)C)n2)ccc1O[C@H]1CCC[C@H](C(=O)O)C1; 25

a = Cc1nc(-c2nnn(C)c2Cn2nnc(Cc3ccc(Cl)cc3)n2)ccc1O[C@H]1CCC[C@H](C(=O)O)C1
b = CCCOCc1nnn(Cc2c(-c3ccc(O[C@H]4CCC[C@H](C(=O)O)C4)c(C)n3)nnn2C)n1
c = Cc1nc(-c2nnn(C)c2Cn2nnnc2CC2CC2)ccc1O[C@H]1CCC[C@H](C(=O)O)C1
d = Cc1nc(-c2nnn(C)c2Cn2cc(C(O)c3ccccc3)nn2)ccc1O[C@H]1CCC[C@H](C(=O)O)C1 (stereo partly drawn)
e = Cc1nc(-c2nnn(C)c2CNc2noc(CC3CC3(F)F)n2)ccc1O[C@H]1CCC[C@H](C(=O)O)C1 (stereo partly drawn) [Example 195]
Thanks in advance: please rank these 5 entries by IC50, highest to lowest. Use the labels to give the ranking in the order requested.
d, c, b, a, e
(d: 363 nM, c: 147 nM, b: 63 nM, a: 38 nM, e: 25 nM)

====

molecular target: human LPA1 (Homo sapiens, UniProt Q92633); construct: expressed in transfected cells; host or cells: Chinese hamster ovary (CHO) cells; assay: LPA1 functional antagonist assay (LPA-induced calcium flux in CHO cells overexpressing human LPA1); type: cell-based; details: inhibition of calcium flux induced by 10 nM LPA, CHO cells overexpressing human LPA1; read-out: hLPA1 IC50
Sequence (Q92633 whole entry): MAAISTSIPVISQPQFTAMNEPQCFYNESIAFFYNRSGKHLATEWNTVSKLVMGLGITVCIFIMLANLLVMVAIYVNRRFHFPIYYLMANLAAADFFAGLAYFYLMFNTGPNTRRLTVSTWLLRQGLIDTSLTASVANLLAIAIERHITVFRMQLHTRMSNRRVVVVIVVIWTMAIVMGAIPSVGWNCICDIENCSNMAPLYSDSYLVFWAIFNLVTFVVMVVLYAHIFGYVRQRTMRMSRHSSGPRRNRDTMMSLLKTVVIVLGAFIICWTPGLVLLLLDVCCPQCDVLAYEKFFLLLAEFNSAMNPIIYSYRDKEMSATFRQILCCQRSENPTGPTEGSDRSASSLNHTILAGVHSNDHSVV
attributeMeasured: IC50 (nM)

P = Cc1nc(-c2nnn(C)c2CNc2noc(CC3CCC3)n2)ccc1O[C@H]1CCC[C@H](C(=O)O)C1 [Example 72]
Q = CCOC1(c2nc(NCc3c(-c4ccc(O[C@H]5CCC[C@H](C(=O)O)C5)c(C)n4)nnn3C)no2)CC1 [Example 225]
R = Cc1nc(-c2nnn(C)c2Cn2nnnc2CCC(C)C)ccc1O[C@H]1CCC[C@H](C(=O)O)C1 [Example 309]
S = Cc1nc(-c2nnn(C)c2CNc2noc(C3CC(F)C3)n2)ccc1O[C@H]1CCC[C@H](C(=O)O)C1 (stereo partly drawn) [Example 189]
T = Cc1nc(-c2nnn(C)c2CNc2noc(CC3CC3(F)F)n2)ccc1O[C@H]1CCC[C@H](C(=O)O)C1 (stereo partly drawn) [Example 196]
Please produce an ascending ranking of these molecules based on IC50. Use the labels to give the ranking in the order requested.
P, T, S, R, Q
(P: 4 nM, T: 28 nM, S: 74 nM, R: 191 nM, Q: 1320 nM)

====

biological target: human LPA1 (Homo sapiens, UniProt Q92633); construct: expressed in transfected cells; host or cells: Chinese hamster ovary (CHO) cells; test: LPA1 functional antagonist assay (LPA-induced calcium flux in CHO cells overexpressing human LPA1); format: cell-based; conditions: read-out: hLPA1 IC50
attributeMeasured: IC50 (nM)

Below are worked cases with known answers.
Cc1nc(-c2nnn(C)c2Cc2nnn(CC3CC3)n2)ccc1O[C@H]1CCC[C@H](C(=O)O)C1; 92
Cc1nc(-c2nnn(C)c2Cn2nnc(OCC3CC4CCC3C4)n2)ccc1O[C@H]1CCC[C@H](C(=O)O)C1 (stereo partly shown); 47
Cc1nc(-c2nnn(C)c2Cc2nnnn2Cc2ccccc2)ccc1O[C@H]1CCC[C@H](C(=O)O)C1; 123

a = CCc1nc(-c2nnn(C)c2Cn2cc(CC(C)C)nn2)ccc1O[C@H]1CCC[C@H](C(=O)O)C1
b = Cc1nc(-c2nnn(C)c2CNc2nnn(CC3CC3)n2)ccc1O[C@H]1CCC[C@H](C(=O)O)C1
Larger number for IC50: a , or b ? Reply briefly: the label of your chosen item.
a

1 = Cc1nc(-c2nnn(C)c2Cc2nnnn2CC(C)C)ccc1O[C@H]1CCC[C@H](C(=O)O)C1
2 = Cc1nc(-c2nnn(C)c2Cn2nnc(N(Cc3ccccc3)Cc3ccccc3)n2)ccc1O[C@H]1CCC[C@H](C(=O)O)C1
Larger number for IC50: 1 , or 2 ? Reply briefly: the label of your chosen item.
2
(2: 1580 nM, 1: 207 nM)

====

molecular target: human LPA1 (Homo sapiens, UniProt Q92633); construct: expressed in transfected cells; host or cells: Chinese hamster ovary (CHO) cells; assay: LPA1 functional antagonist assay (LPA-induced calcium flux in CHO cells overexpressing human LPA1); format: cell-based; conditions: inhibition of calcium flux induced by 10 nM LPA, CHO cells overexpressing human LPA1; read-out: hLPA1 IC50
pIC50: −log10 of the molar value. Counter-ions that a name gives are not always drawn.
attributeMeasured: pIC50

Below are worked cases with known answers.
Cc1nc(-c2nnn(C)c2Cn2nnc(CCC(C)C)n2)ccc1O[C@H]1CCC[C@H](C(=O)O)C1; 7.62
Cc1nc(-c2nnn(C)c2CNc2nc(CC(C)C)no2)ccc1O[C@H]1CCC[C@H](C(=O)O)C1; 7.28
Cc1nc(-c2nnn(C)c2Cn2nncc2CC2CC2)ccc1O[C@H]1CCC[C@H](C(=O)O)C1; 7.39
Cc1nc(-c2nnn(C)c2Cc2noc(-c3ccccc3)n2)ccc1O[C@H]1CCC[C@H](C(=O)O)C1; 6.79
Cc1nc(-c2nnn(C)c2CNc2noc(CCC3CCC3)n2)c(F)cc1O[C@H]1CCC[C@H](C(=O)O)C1; 7.52
Cc1nc(-c2nnn(C)c2Cc2nc(CC(C)C)no2)ccc1O[C@H]1CCC[C@H](C(=O)O)C1; 7.24
Cc1nc(-c2nnn(C)c2CNc2noc(C3CC(F)C3)n2)ccc1O[C@H]1CCC[C@H](C(=O)O)C1 (stereo partly shown) [Example 190]; 7.26
CCCOc1nnn(Cc2c(-c3ccc(O[C@H]4CCC[C@@H](C(=O)O)C4)c(C)n3)nnn2C)n1; 6.57

a = Cc1nc(-c2nnn(C)c2CNc2noc(CCOC(C)C)n2)ccc1O[C@H]1CCC[C@H](C(=O)O)C1
b = Cc1nc(-c2nnn(C)c2Nc2nnc(CC3CC3)o2)ccc1O[C@H]1CCC[C@H](C(=O)O)C1 [Example 276, TFA salt]
Returns the identifier with the smallest measured pIC50 among a and b . Reply briefly: the label of your chosen item.
b

====

target: human LPA1 (Homo sapiens); construct: expressed in transfected cells; host or cells: Chinese hamster ovary (CHO) cells; test: LPA1 functional antagonist assay (LPA-induced calcium flux in CHO cells overexpressing human LPA1); assay type: cell-based; conditions: read-out: hLPA1 IC50
pIC50: −log10 of the molar value.
attributeMeasured: pIC50

CCCCN(C)c1nnn(Cc2c(-c3ccc(O[C@H]4CCC[C@H](C(=O)O)C4)c(C)n3)nnn2C)n1 [Example 361]; 6.64

A = CCCc1cn(Cc2c(-c3ccc(O[C@H]4CCC[C@H](C(=O)O)C4)c(CC)n3)nnn2C)nn1 [Example 372]
B = COc1ccc(-n2nnc(NCc3c(-c4ccc(O[C@H]5CCC[C@@H](C(=O)O)C5)c(C)n4)nnn3C)n2)cc1 [Example 379]
Larger number for pIC50: A , or B ? Reply briefly: the label of your chosen item.
A

====

target: human LPA1 (Homo sapiens); construct: expressed in transfected cells; host or cells: Chinese hamster ovary (CHO) cells; experiment: LPA1 functional antagonist assay (LPA-induced calcium flux in CHO cells overexpressing human LPA1); assay type: cell-based; details: inhibition of calcium flux induced by 10 nM LPA, CHO cells overexpressing human LPA1; read-out: hLPA1 IC50
attributeMeasured: IC50 (nM)

A = Cc1nc(-c2nnn(C)c2CNc2ncc(C(C)C)o2)ccc1O[C@H]1CCC[C@H](C(=O)O)C1
B = CCCCc1nc(Cc2c(-c3ccc(O[C@H]4CCC[C@H](C(=O)O)C4)c(C)n3)nnn2C)no1
C = COc1cccc(Cc2noc(Cc3c(-c4ccc(O[C@H]5CCC[C@H](C(=O)O)C5)c(C)n4)nnn3C)n2)c1
D = Cc1nc(-c2nnn(C)c2Cn2nnc(CCC3CC3)n2)ccc1O[C@H]1CCC[C@H](C(=O)O)C1
Please produce an ascending ranking of these molecules based on IC50. Use the labels to give the ranking in the order requested.
B, A, D, C
